Please provide measured GI50 for the entries that follow.
System: OVCAR-3
Test: Growth inhibition of human OVCAR-3 cells after 48 hrs
Format: functional
Conditions: OVCAR-3, 48 h

Exercise: Read off the recorded GI50 for O=C(Nc1sc2c(c1C(=O)NNc1ccccc1)CCCCC2)NS(=O)(=O)c1ccccc1
Key: 15.2 µM

Exercise: Tell me its GI50 given O=C(Nc1sc2c(c1C(=O)NNc1ccc(Cl)cc1)CCCCC2)NS(=O)(=O)c1ccccc1 as the entry.
Key: > 100 µM

Exercise: Retrieve GI50 measured for O=C(Nc1sc2c(c1C(=O)NNc1ccc(Br)cc1)CCCCC2)NS(=O)(=O)c1ccccc1 and print it.
Key: 14.8 µM

Exercise: Quote GI50 reported for O=C(Nc1sc2c(c1C(=O)N1CCN(c3ccccc3)CC1)CCCCC2)NS(=O)(=O)c1ccccc1 please.
Key: 11.9 µM

Exercise: For the compound O=c1[nH]c2sc3c(c2c(=O)n1S(=O)(=O)c1ccccc1)CCCCC3 , report GI50.
Key: > 100 µM

Exercise: Fill in GI50 for record NNC(=O)c1c(NC(=O)NS(=O)(=O)c2ccccc2)sc2c1CCCCC2
Key: > 100 µM

Exercise: Entry CN1CCN(C(=O)c2c(NC(=O)NS(=O)(=O)c3ccccc3)sc3c2CCCCC3)CC1 needs its GI50 filled in; supply it.
Key: > 100 µM

Exercise: Identify GI50 associated with the compound CCCNC(=O)c1c(NC(=O)NS(=O)(=O)c2ccccc2)sc2c1CCCCC2
Key: > 100 µM

###

Would you mind telling me the reported log10(GI50) of each entry?
Assay: Growth inhibition of human Breast cancer cells after 48 hrs
Assay type: functional
Settings: Cancer cell lines
// stored as log10 of GI50 expressed in µM

Exercise: Identify measured log10(GI50) associated with CCCCNC(=O)c1c(NC(=O)NS(=O)(=O)c2ccccc2)sc2c1CCCCC2
Key: 1.93

Exercise: Retrieve log10(GI50) measured for O=C(Nc1sc2c(c1C(=O)NNc1ccccc1)CCCCC2)NS(=O)(=O)c1ccccc1 and print it.
Key: 1.27

Exercise: Input CN1CCN(C(=O)c2c(NC(=O)NS(=O)(=O)c3ccccc3)sc3c2CCCCC3)CC1 , output reported log10(GI50).
Key: 1.69

Exercise: Read the entry O=c1[nH]c2sc3c(c2c(=O)n1S(=O)(=O)c1ccccc1)CCCCC3 and write its reported log10(GI50).
Key: 1.35

Exercise: Answer with the recorded log10(GI50) of NNC(=O)c1c(NC(=O)NS(=O)(=O)c2ccccc2)sc2c1CCCCC2 only.
Key: 0.65

Exercise: Please give the documented log10(GI50) of O=C(Nc1sc2c(c1C(=O)NNc1ccc(Br)cc1)CCCCC2)NS(=O)(=O)c1ccccc1
Key: 0.72

Exercise: Consider the compound CCCNC(=O)c1c(NC(=O)NS(=O)(=O)c2ccccc2)sc2c1CCCCC2 and give its recorded log10(GI50).
Key: 1.85

Exercise: State its log10(GI50): O=C(Nc1sc2c(c1C(=O)NNc1ccc(Cl)cc1)CCCCC2)NS(=O)(=O)c1ccccc1
Key: 0.77

Exercise: Identify measured log10(GI50) corresponding to O=C(Nc1sc2c(c1C(=O)N1CCN(c3ccccc3)CC1)CCCCC2)NS(=O)(=O)c1ccccc1
Key: 1.76
